biological target: recombinant full-length human prolyl endopeptidase (PREP) (Homo sapiens, UniProt P48147); construct: To recombinant full-length human prolyl endopeptidase (PREP, R&D-Systems, 4308-SE); experiment: Biochemical human prolyl endopeptidase (PREP) assay with fluorescently labelled substrate; conditions: substrate Z-Gly-Pro-AMC 50 μM, 32° C., 60 min; some as mean values from multiple independent determinations
Sequence (P48147 whole entry): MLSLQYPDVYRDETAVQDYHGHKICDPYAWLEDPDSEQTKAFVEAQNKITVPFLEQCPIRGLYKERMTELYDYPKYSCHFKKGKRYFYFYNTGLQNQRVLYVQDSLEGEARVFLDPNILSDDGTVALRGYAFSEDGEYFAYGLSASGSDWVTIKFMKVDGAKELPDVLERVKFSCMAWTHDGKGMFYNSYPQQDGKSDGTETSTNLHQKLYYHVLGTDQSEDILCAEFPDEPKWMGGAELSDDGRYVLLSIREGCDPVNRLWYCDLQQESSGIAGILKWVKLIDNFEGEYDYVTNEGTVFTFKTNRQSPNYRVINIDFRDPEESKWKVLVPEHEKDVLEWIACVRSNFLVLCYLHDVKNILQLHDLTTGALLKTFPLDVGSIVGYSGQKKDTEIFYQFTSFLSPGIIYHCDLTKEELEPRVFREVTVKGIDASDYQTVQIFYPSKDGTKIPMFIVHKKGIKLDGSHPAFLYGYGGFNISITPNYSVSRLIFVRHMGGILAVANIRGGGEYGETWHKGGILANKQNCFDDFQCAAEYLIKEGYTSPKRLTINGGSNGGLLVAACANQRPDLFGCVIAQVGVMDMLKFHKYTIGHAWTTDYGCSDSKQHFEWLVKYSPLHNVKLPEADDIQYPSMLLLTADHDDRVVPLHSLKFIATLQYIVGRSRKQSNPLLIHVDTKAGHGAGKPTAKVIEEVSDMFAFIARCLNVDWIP
ENDPOINT: IC50 (nM)
Answer format: numeric, nM implied, no suffix.

These recorded examples may help you get a feel for the data.
molecule="O=C([C@@H]1CCCc2nn(Cc3cccc(Cl)n3)c(=O)n21)N1CC(F)C1 [Example 384]" endpoint=IC50 meas_value=11
molecule="O=C([C@@H]1CCCc2nn(Cc3nc(C(F)(F)F)no3)c(=O)n21)N1CCC(F)(F)C1 [Example 501]" endpoint=IC50 meas_value=25.5
molecule="Cc1nonc1Cn1nc2n(c1=O)C(C(=O)N1CCCC1)CCC2 (racemic) [Example 60]" endpoint=IC50 meas_value=18.5
molecule="Cn1ccc(Cn2nc3n(c2=O)C(C(=O)N2CCC(F)(F)C2)CCC3)n1 (racemic) [Example 90]" endpoint=IC50 meas_value=9.8
molecule="O=C(C1CC(C(F)(F)F)Cc2nn(Cc3ccc(C(F)(F)F)nc3)c(=O)n21)N1CC(F)C(F)C1 (single isomer, unassigned) [Example 584]" endpoint=IC50 meas_value=50
molecule="O=C([C@@H]1CCC(F)(F)c2nn(Cc3ccc(C(F)(F)F)nc3)c(=O)n21)N1CC[C@H](F)C1 [Example 278]" endpoint=IC50 meas_value=3.3

--- query ---
Item O=C(C1CCCc2nn(Cc3ccc(F)c(Cl)c3)c(=O)n21)N1CCCC1 (racemic) [Example 18] was tested on recombinant full-length human prolyl endopeptidase (PREP) (Homo sapiens, UniProt P48147); the reported IC50 is 0.575
